Source listed as the supplement of paper PMC10567573.

Measured protein stability index values are reported for all entries that follow.
Assay: protein stability index of a GFP-peptide fusion (GPS, HEK-293T) (PSI 1-6); higher = more stable;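 further: 24-mer peptide tiles fused after GFP, lentivirally expressed, FACS-sorted into six equal bins by GFP/DsRed ratio, decoded by Illumina sequencing, PSI is the read-weighted mean bin number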
Details: treatment: DMSO; c terminus: a fixed tail appended
The response must contain the number and no unit.

Known protein stability index results, listed for orientation:
Sequence | Reported
EAAKQMRSRGKVLKTKDGKLPFCA [CPOX] | 3.89
AGSCRLGSAGGLGSTLGGSSYSSC [KRT17] | 2.22
HTFNAHAATDITGFGILGHSQNLA [SEPHS2] | 3
QRAWVRALNEQACRNGSSIQIAFE [C2CD2L] | 2.46
GHGIVGTIVKARDKLYHPECFMCS [PDLIM4] | 2.45

Query :: Tell me protein stability index reported for AKRLLDADDAAAVAAKCPRLSECS [TRIB1]
Result :: 4

Query :: Tell me protein stability index reported for RHWHRPVLMAVSVHSERKLLPLVT [SCNN1D]
Result :: 2.23

Query :: Tell me protein stability index reported for GGRKGTAIELQGHNDRVQALSYAQ [WDFY2]
Result :: 4.28

Query :: Tell me protein stability index reported for LTKTFQGPAVVCGTPTSHVYMFKN [LYSMD4]
Result :: 2.45

Query :: Tell me protein stability index reported for GRARFTTYEVRMRTNLPIFKLKES [SNX12]
Result :: 2.27

Query :: Tell me protein stability index reported for VSKGAESSRSSEESSSDSGSSDSE [BRD3]
Result :: 5.61

Query :: Tell me protein stability index reported for GSAPNSPMALLTIGSSSEKEIDDV [TFE3]
Result :: 5.26

Query :: Tell me protein stability index reported for SEVEELNMSLTALREKLLEAEQSL [TEKT4]
Result :: 3.52

Query :: Tell me protein stability index reported for PEKEYQRQVWLLFEYPESSGPARV [KCNA1]
Result :: 2.59

###

Measured protein stability index values are reported for all entries that follow.
Assay: protein stability index of a GFP-peptide fusion (GPS, HEK-293T) (PSI 1-6); higher = more stable
Settings: treatment: MLN4924 1 uM, 8 h; c terminus: a fixed tail appended
The response must contain the number and no unit.

Known protein stability index results, listed for orientation:
Sequence | Property label | Reported
EAAEPPKTPPSSCDSTNAAIAKQA [KMT5A] | protein stability index | 5.34
PESQFPEFSTSLFSGSLEPVACGS [SRPK2] | protein stability index | 4.29
PKGLDDESKDYLSLYLLLVSCPKS [SPOPL] | protein stability index | 2.95
CPSSPKQIHLDVDNDRTTPSDLDS [DLC1] | protein stability index | 5.55
VRAHQDTQRRTSMGGTQQQFVEGV [CTNNB1] | protein stability index | 4.24

Could you now consider this next sequence?
Query :: Tell me protein stability index reported for LGGAAFLGTAIFIEADRRRAQLHV [SPNS1]
Result :: 2.32

###

Measured protein stability index values are reported for all entries that follow.
Experiment: protein stability index of a GFP-peptide fusion (GPS, HEK-293T) (PSI 1-6); higher = more stable
Conditions: treatment: MLN4924 1 uM, 8 h; c terminus: a fixed tail appended
The response must contain the number and no unit.

Known protein stability index results, listed for orientation:
Sequence | Reported
PAATMAVELHYEEGSPRNLGTPTS [C2CD2L] | 4.52
ENKVVEKAPVQNEAPALGGGEYQE [BEX5] | 5.42
AVPHPPPSTPIKLEEGDGCAREYL [ADD1] | 4.42

Could you now consider this next sequence?
Query :: Tell me protein stability index reported for EELYKEIDGVATTRYSVAGLSPYS [PTPRD]
Result :: 3.36

###

Assay: protein stability index of a GFP-peptide fusion (GPS, HEK-293T) (PSI 1-6); higher = more stable
Settings: treatment: MLN4924 1 uM, 8 h; c terminus: a fixed tail appended
Quick rule: protein stability index of at least 3 means condition met, below that means condition not met.

Sequence | Answer label
LKLLNVLEEYITDEQKEEEEEEGE [FAM9B] | condition met
LPDELGSQLPQVLHVSLGQKLVAA [MOSPD3] | condition met
VRSQYPNQPTRFGKLLLRLPSLRT [NR2F2] | condition not met
LHKFPYRMVPALPPKRMLGADREF [SNX8] | condition not met
SDLSRRSSSTMSKSEYMEIEEDMN [KCNA1] | condition met
MLAEIFCQTGGVEDQEEWHAQVVE [ZBED1] | condition met
VRLRTLLCKVLGVLFSVAGGLFVG [CLCN6] | condition not met
FPAYTQSTASTTSTTNSTAAKPAA [ZNF207] | condition met
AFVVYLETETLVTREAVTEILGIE [TSN] | condition not met
QSGGRLRRPVNVPLDMFSEEIKFY [KCNA1] | condition not met

Query :: Does the reported protein stability index for KLREKERKKEAKRKISSLSFTLEE [FAM50A] fall at or above the 3 mark?
Result :: condition met

Query :: Does the reported protein stability index for PEKEYQRQVWLLFEYPESSGPARV [KCNA1] fall at or above the 3 mark?
Result :: condition not met

Query :: Does the reported protein stability index for VLEHSLDREEEAIHHLVLTASDGG [PCDHGA10] fall at or above the 3 mark?
Result :: condition met

Query :: Does the reported protein stability index for FYGHSHHSHHGHPSHQSHSLPNRR [C10orf62] fall at or above the 3 mark?
Result :: condition met

Query :: Does the reported protein stability index for RKLLNRHNIVFGDYTWTEFDEPFL [TRIP13] fall at or above the 3 mark?
Result :: condition not met

Query :: Does the reported protein stability index for SSRLPQPSGAGKTVVGVPSGKVSS [ZC2HC1A] fall at or above the 3 mark?
Result :: condition met

Query :: Does the reported protein stability index for RLLGSARPELGAALGIYGAPYAAA [IRX6] fall at or above the 3 mark?
Result :: condition not met

###

Assay: protein stability index of a GFP-peptide fusion (GPS, HEK-293T) (PSI 1-6); higher = more stable
Details: treatment: MLN4924 1 uM, 8 h; c terminus: a fixed tail appended
Property label: protein stability index
The response must contain the number and no unit.

Known protein stability index results, listed for orientation:
Sequence | protein stability index
PEKRTQYFDPLRNEYFFDRNRPSF [KCNA4] | 3.03
YKCSWCGKSFSQNTNLHTHQRTHT [ZNF75A] | 4.29
EGFQRCDVARQLGKNNEFSRLVAG [PSD2] | 3.58
ERKPAATARLSRRGTSLSPPPESS [KISS1] | 5.26
IAENGVSERDSEAAKQNHVTADDF [EHMT1] | 5.42
LGQDRQVPLWGQLLLFLVFVIVLF [EMD] | 2.79
RKRTAHERAKELYSSGEFSSGRKW [INTS4] | 4.08
KFLVGTVGSDPLIKSDEECRDLVD [KLHL20] | 4.14

Query :: Tell me protein stability index reported for DLIKHQRIHTEEKPYKCQQCDKRF [ZNF75A]
Result :: 3.31

Query :: Tell me protein stability index reported for MYPESTTGSPARLSLRQTGSPGMI [KCNAB2]
Result :: 4.1

###

Test: protein stability index of a GFP-peptide fusion (GPS, HEK-293T) (PSI 1-6); higher = more stable
Details: treatment: MLN4924 1 uM, 8 h; c terminus: a fixed tail appended
Measured protein stability index values are reported for all entries that follow.
The response must contain the number and no unit.

Known protein stability index results, listed for orientation:
Sequence | protein stability index
VCGQNWGIVEAMVVCRQLGLGFAS [LOXL2] | 3.18
IQDNGTGIRKEDLDIVCERFTTSK [MLH1] | 4.46
LAHLGRHMEALEIAANLENKATNT [C8orf76] | 4.29

Could you now consider this next sequence?
Query :: Tell me protein stability index reported for RSGSPTVPIKPPCIPNGKENFSGG [CAMK2D]
Result :: 4.32
